- System: MDA-MB-468 breast
- assay name: NCI-60 one-dose screen, 48 h (100 = growth as untreated, 0 = no growth, -100 = all killed)
- applied conditions: 10 µM
About 83,000 compounds went through this panel and 20% of them were active in at least one assay; those are over-represented in the sample as a whole.
property name: growth (%)
Lab book: enter the figure in %, no units written.

// worked examples, growth included
Q: Name the recorded growth of the compound listed here: Nc1nc(Nc2ccc(Cl)cc2)n(Cc2cccc(Br)c2)n1
A: -46.5

Q: Name the recorded growth of the compound listed here: CN1C(=O)N(C)C2SC(N/N=C/C=C/c3ccccc3)=NC21 (stereo not given)
A: -4.12

Q: Name the recorded growth of the compound listed here: Brc1ccc(N/N=C/c2c[nH]c3ccccc23)nc1
A: -35.5

Q: Name the recorded growth of the compound listed here: CN1CCN(c2ccc(Nc3nc(N4CCN(S(=O)(=O)c5ccc(F)cc5)CC4)c4sccc4n3)cc2)CC1
A: -96.7

Now let's try a different one.
Q: Name the recorded growth of the compound listed here: CCN1CCN(c2ccc(NC(=O)Nc3ccc(-c4cc(C(=O)NC(C)C)c5ncccc5n4)cc3)cc2C(F)(F)F)CC1
A: -91.1

====

- Test system: HOP-62 NSCLC
- assay name: NCI-60 one-dose screen, 48 h (100 = growth as untreated, 0 = no growth, -100 = all killed)
- applied conditions: 10 µM
About 83,000 compounds went through this panel and 20% of them were active in at least one assay; those are over-represented in the sample as a whole.
Classification field: enter Yes for growth values not below 80%, No for values below it.

Q: Assess whether reported growth for Cc1ccc(-c2nc(Nc3ccc(C)c(S(N)(=O)=O)c3)c3ccccc3n2)cc1 sits at 80% or higher.
A: Yes

New cases:
Q: Assess whether reported growth for C#CCNC(=O)CCC(=O)OC[C@]12CC[C@@H](C(=C)C)[C@@H]1C1CC[C@@H]3[C@@]4(C)CCCNC(C)(C)[C@@H]4CC[C@@]3(C)[C@]1(C)CC2 (stereo partly drawn) sits at 80% or higher.
A: No

====

- Test system: IGROV1 ovarian
- assay name: NCI-60 one-dose screen, 48 h (100 = growth as untreated, 0 = no growth, -100 = all killed)
- applied conditions: 10 µM
About 83,000 compounds went through this panel and 20% of them were active in at least one assay; those are over-represented in the sample as a whole.
property name: growth (%)
Lab book: enter the figure in %, no units written.

// worked examples, growth included
Q: Name the recorded growth of the molecule listed here: COc1ccc(/C=C/C(=O)c2ccc(S(=O)(=O)NCCNc3nc(Nc4ccc(F)cc4)nc(N(C)C)n3)cc2)cc1
A: 43.6

Q: Name the recorded growth of the molecule listed here: O=[N+]([O-])c1ccc(-c2nc(-c3ccccc3)c(-c3ccccc3)n2-c2ccc(S(=O)(=O)Nc3ncccn3)cc2)cc1
A: 74.3

Q: Name the recorded growth of the molecule listed here: O=C1NC(=NC23CC4CC(CC(C4)C2)C3)N/C1=C\c1ccc2ncccc2n1
A: -6.63

Q: Name the recorded growth of the molecule listed here: COC(=O)C(Cc1ccc(O)c(O)c1)NC(=O)C(CSC/C=C(\C)CCCC(C)CCCC(C)CCCC(C)C)NC(C)=O (stereo not drawn)
A: 17.4

Q: Name the recorded growth of the molecule listed here: CCOc1ccc(/C=N/NC(=O)Cn2nc(Cc3ccc([N+](=O)[O-])cc3)c3onc(C)c3c2=O)cc1
A: 27.6

New cases:
Q: Name the recorded growth of the molecule listed here: O=c1oc2ccccc2cc1-c1csc(N=Nc2c(O)[nH]c3ccc(Br)cc23)n1
A: 79.5

Q: Name the recorded growth of the molecule listed here: CCOC(=O)CNC(=O)CN(Cc1ccccc1)C(=O)[C@@]1(C)CCC[C@]2(C)[C@H]3CC4C(C(C)C)=C[C@]3(CC[C@H]21)[C@@H]1C(=O)CCC(=O)[C@H]41
A: 18.2

Q: Name the recorded growth of the molecule listed here: Brc1ccc(/C=N/Nc2ncnc3sc4c(c23)CCN(Cc2ccccc2)C4)cc1
A: 94.6

====

- System: U251 CNS
- assay name: NCI-60 one-dose screen, 48 h (100 = growth as untreated, 0 = no growth, -100 = all killed)
- applied conditions: 10 µM
- Description: Growth inhibition of the U251 human tumor cell line is measured as a screen for anti-cancer activity. Cells are grown in 96 well plates and exposed to the test compound for 48 hours. Compounds are tested at a single concentration, which is 10^-5 M for most compounds. The reported endpoint is percent growth (GI% or GIPRCNT), where numbers from 0 - 100% represent growth inhibition, and numbers from -100% - 0 represent cell death. For example, a value of 40 represents 60% growth inhibition. […]
About 83,000 compounds went through this panel and 20% of them were active in at least one assay; those are over-represented in the sample as a whole.
Measured growth, listed per entry for reference.
Lab book: enter the figure in %, no units written.

// worked examples, growth included
Q: Name the recorded growth of the compound listed here: CC(C)CCSc1nc(NC2CC2)c(C#N)c(-c2ccc(C(C)C)cc2)n1
A: 106

Q: Name the recorded growth of the compound listed here: Cc1cc(=O)oc2cc(OCCCCOc3ccc(/C=C/C(=O)Nc4ccc(F)c(Cl)c4)cc3)ccc12
A: 95.1

Q: Name the recorded growth of the compound listed here: CCCCCCCCCCCCCCCCCCCC(=O)NCCc1c[nH]c2ccc(O)cc12
A: 99

Q: Name the recorded growth of the compound listed here: O=C(/C=C/Nc1ccccc1)c1ccc2c(c1)Nc1ccccc1S2
A: 38

Q: Name the recorded growth of the compound listed here: Cc1cccc2cc(-c3cc(-c4ccccc4)nc(=O)[nH]3)c(Cl)nc12
A: 62.6

New cases:
Q: Name the recorded growth of the compound listed here: COc1ccc(N(C)c2cc(C#N)nc3ccccc23)cc1/C=C/C(=O)NO
A: -51

Q: Name the recorded growth of the compound listed here: COc1cccc(C(N)=Nc2ccc(OCCCCCCn3cncn3)cc2)c1
A: 10.3

Q: Name the recorded growth of the compound listed here: O=C(N/N=C/c1ccc(B(O)O)o1)c1[nH]c2ccc(Br)cc2c1-c1ccccc1
A: 10.1

Q: Name the recorded growth of the compound listed here: COc1ccc(Nc2nc(N)n(Cc3cccc(Br)c3)n2)cc1
A: 24.7

Q: Name the recorded growth of the compound listed here: COc1ccc(C(=O)CSc2nnc(-c3c[nH]c4ccccc34)n2-c2ccccc2)cc1
A: 34.4

====

- System: OVCAR-8 ovarian
- assay name: NCI-60 one-dose screen, 48 h
- applied conditions: 10 µM
About 83,000 compounds went through this panel and 20% of them were active in at least one assay; those are over-represented in the sample as a whole. The source made the active and inactive calls. Rule for the calls: active = growth percent below 10; inactive = the rest.
Choose the fitting class; nothing outside true (1) for active, false (0) for inactive is accepted.

Solved cases (4 shown):
Q: Per the records of this test, what outcome belongs to CC(=O)Nc1ccc(-n2cnc3cc(-c4ccc(NS(C)(=O)=O)cc4)ccc32)cc1 ?
A: false (0)

Q: Per the records of this test, what outcome belongs to Cc1ccc(/C(N)=N/c2sc(-c3ccccc3)nc2-c2ccccc2)cc1 ?
A: false (0)

Q: Per the records of this test, what outcome belongs to Cc1noc2c(Cc3ccc([N+](=O)[O-])cc3)nn(CC(=O)N/N=C/c3ccc(Br)cc3)c(=O)c12 ?
A: false (0)

Q: Per the records of this test, what outcome belongs to O=C(CNc1nc(-c2ccccc2)cs1)Nc1cccc([N+](=O)[O-])c1 ?
A: true (1)

New cases:
Q: Per the records of this test, what outcome belongs to COc1ccc2nc(Cl)c(-c3cc(-c4ccccc4)nc(=S)[nH]3)cc2c1 ?
A: false (0)

Q: Per the records of this test, what outcome belongs to CCCCSc1nc(Nc2ccc(/C(C)=N/NC(N)=S)cc2)c(C#N)c(-c2ccccc2)n1 ?
A: false (0)

Q: Per the records of this test, what outcome belongs to CC1=C(C(=O)OC(C)C)C(c2ccc(O)cc2)NC(=S)N1 (centres undefined) ?
A: false (0)

Q: Per the records of this test, what outcome belongs to O=C(Nc1cccc(C(F)(F)F)c1)c1cncc(C#Cc2cnc3ccc(N4CCOCC4)nn23)c1 ?
A: true (1)

Q: Per the records of this test, what outcome belongs to CCCn1c(O)c(N=Nc2nc(-c3cc4ccccc4oc3=O)cs2)c2cc(Br)ccc21 ?
A: false (0)

====

- Test system: MOLT-4 leukemia
- assay name: NCI-60 one-dose screen, 48 h
- applied conditions: 10 µM
This is part of a sample that, as a whole, favours compounds with a hit. Of some 83,000 tested, about 20% had one in any assay. Activity calls are given as the source filed them. Rule for the calls: active = growth percent below 10; inactive = the rest.
Choose the fitting class; nothing outside class 1 for active, class 0 for inactive is accepted.

Solved cases (5 shown):
Q: Per the records of this test, what outcome belongs to Cc1ccc(F)cc1N/C=c1\s/c(=C(\C#N)C(=O)Nc2ccccc2)n(-c2ccccc2)c1=O ?
A: class 0

Q: Per the records of this test, what outcome belongs to O=C(c1ccc(Cl)cc1)C1[C@H](c2ccc(Br)cc2)[C@@H](c2ccccc2)NC12C(=O)Nc1ccccc12 (stereo partly drawn) ?
A: class 1

Q: Per the records of this test, what outcome belongs to Brc1ccc(/C=N/Nc2ncnc3sc4c(c23)CCN(Cc2ccccc2)C4)cc1 ?
A: class 0

Q: Per the records of this test, what outcome belongs to CCCCCCCCCCCCCCCCCCCC(=O)NCCc1c[nH]c2ccc(O)cc12 ?
A: class 0

Q: Per the records of this test, what outcome belongs to CC(=O)c1cc(C(=O)N2c3ccccc3Sc3ccccc32)n2ccc(C)cc12 ?
A: class 0

New cases:
Q: Per the records of this test, what outcome belongs to O=C(Nc1ccc(F)c(Cl)c1)c1cc(-c2ccc(F)cc2F)ccc1O ?
A: class 1

Q: Per the records of this test, what outcome belongs to COc1ccc2[nH]c(=O)c(CSc3ccc(Nc4nccc(-c5ccc(Cl)cc5)n4)cc3)cc2c1 ?
A: class 0

Q: Per the records of this test, what outcome belongs to Cc1ccc2nc(COc3ccc(C(=O)NNC(=S)NCCc4ccccc4)cc3)[nH]c2c1 ?
A: class 0

Q: Per the records of this test, what outcome belongs to O=C1Nc2cc(-c3ccc(NC(=O)c4cccs4)cc3)ccc2/C1=C/c1ccc[nH]1 ?
A: class 0

Q: Per the records of this test, what outcome belongs to CCCCCCCCCCCCCCCCCCCC(=O)NCCc1c[nH]c2ccc(OC(=O)NOCCOCCOCCOCCOCCOCCOCCOCCOCCOCCOCCOCCOCCOCCOCCOCCOCCOCCOCCOCCOCCOCCOC)cc12 ?
A: class 1

Q: Per the records of this test, what outcome belongs to COc1cc(-c2nc3cc(Cl)c(Cl)cc3[nH]2)ccc1OCc1nnc(-c2ccc(Br)cc2)o1 ?
A: class 1

Q: Per the records of this test, what outcome belongs to COc1ccc(-c2c(N)c(=O)n(C)c3ccccc23)cc1 ?
A: class 0
